# SYSTEM: PI3Kδ (p110δ/p85α) (Homo sapiens (Human), UniProt O00329)
# Sequence (O00329 whole entry): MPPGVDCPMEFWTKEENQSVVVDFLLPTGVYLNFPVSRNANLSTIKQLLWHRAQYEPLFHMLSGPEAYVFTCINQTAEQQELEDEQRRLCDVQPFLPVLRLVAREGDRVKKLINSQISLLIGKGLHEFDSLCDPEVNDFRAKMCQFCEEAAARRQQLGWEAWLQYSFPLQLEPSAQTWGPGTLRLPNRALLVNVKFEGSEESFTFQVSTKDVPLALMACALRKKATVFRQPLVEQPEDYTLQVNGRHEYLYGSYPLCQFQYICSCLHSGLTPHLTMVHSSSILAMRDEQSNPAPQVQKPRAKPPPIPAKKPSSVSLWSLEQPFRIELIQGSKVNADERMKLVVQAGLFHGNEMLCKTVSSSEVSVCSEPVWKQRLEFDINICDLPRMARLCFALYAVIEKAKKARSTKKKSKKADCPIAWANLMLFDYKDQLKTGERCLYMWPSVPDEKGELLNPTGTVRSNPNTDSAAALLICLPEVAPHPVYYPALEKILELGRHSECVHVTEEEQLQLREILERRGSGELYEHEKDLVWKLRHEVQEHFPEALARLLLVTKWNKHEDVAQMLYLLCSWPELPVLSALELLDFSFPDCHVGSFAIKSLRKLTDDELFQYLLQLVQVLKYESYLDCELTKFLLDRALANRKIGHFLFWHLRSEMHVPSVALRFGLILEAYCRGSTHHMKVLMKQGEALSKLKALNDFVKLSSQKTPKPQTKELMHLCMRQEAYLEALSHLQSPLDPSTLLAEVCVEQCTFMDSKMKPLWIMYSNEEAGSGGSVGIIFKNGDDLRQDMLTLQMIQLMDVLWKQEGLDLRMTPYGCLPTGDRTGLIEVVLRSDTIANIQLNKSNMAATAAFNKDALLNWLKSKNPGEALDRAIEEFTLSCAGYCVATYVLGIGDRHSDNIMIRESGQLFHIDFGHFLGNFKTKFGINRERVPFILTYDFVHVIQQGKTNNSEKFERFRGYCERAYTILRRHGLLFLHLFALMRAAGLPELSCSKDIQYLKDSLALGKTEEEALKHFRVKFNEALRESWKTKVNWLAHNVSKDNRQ
# Sequence (P27986 whole entry partner): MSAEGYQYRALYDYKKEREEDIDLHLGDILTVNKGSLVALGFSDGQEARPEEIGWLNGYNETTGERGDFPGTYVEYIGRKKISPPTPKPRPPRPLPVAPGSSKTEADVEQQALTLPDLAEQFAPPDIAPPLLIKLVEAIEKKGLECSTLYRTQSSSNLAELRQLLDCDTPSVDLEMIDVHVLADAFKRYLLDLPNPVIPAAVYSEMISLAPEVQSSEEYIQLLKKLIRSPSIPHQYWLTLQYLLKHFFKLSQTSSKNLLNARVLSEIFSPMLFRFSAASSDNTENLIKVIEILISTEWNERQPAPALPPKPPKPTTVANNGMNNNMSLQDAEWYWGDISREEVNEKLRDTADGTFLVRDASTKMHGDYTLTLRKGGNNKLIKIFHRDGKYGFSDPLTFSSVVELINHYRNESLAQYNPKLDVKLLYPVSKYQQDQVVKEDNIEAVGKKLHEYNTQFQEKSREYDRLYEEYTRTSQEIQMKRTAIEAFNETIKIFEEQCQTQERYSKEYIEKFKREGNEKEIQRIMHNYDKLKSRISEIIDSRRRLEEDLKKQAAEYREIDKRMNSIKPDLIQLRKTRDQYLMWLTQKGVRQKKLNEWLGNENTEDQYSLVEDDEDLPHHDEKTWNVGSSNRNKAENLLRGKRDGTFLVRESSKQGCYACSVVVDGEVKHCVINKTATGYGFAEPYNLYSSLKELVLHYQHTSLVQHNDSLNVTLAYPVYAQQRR
# METHOD_DESCRIPTION: PI3Kδ scintillation proximity assay (Example A3)
# ASSAY_CONTEXT: 20 μM ATP, 4 nM PI3Kδ, read-out: PI3Kδ SPA IC50
pIC50: −log10 of the molar value.
VALUE_TYPE: pIC50

[[record]]
compound = "CCOc1c(C(C)n2nc(C)c3c(N)ncnc32)cc(Cl)c(C#N)c1-c1ccc(C(=O)NC)nc1 (stereo not shown)"
system = "PI3Kδ (p110δ/p85α) (Homo sapiens (Human), UniProt O00329)"
value_type = "pIC50"
measured_result = "> 8.00"

